Biological target: T1, recombinant human ASM protein (human, UniProt P17405 47-630)
T1 construct: Recombinant human ASM in solution; also called acid sphingomyelinase (ASM) protein
T1 sequence: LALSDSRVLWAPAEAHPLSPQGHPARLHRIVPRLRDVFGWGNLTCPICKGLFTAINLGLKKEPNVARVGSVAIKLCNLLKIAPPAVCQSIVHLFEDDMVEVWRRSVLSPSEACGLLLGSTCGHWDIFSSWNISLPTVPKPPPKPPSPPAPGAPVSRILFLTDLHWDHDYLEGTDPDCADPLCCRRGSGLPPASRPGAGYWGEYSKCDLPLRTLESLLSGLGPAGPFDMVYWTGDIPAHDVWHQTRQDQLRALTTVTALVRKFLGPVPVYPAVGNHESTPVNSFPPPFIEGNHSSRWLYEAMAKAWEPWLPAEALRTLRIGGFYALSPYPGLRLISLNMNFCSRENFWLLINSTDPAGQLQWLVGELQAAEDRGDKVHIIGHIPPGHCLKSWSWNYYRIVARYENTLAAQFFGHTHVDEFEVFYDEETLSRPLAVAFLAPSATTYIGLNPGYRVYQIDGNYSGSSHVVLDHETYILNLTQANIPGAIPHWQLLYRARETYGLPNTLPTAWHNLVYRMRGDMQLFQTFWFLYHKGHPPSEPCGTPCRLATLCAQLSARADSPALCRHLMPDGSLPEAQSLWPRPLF
Test: BLI (Octet), antibody on AHC sensor
REPORTED PROPERTY: koff (s⁻¹)
Field: numeric (s⁻¹). Do not append units.

Examples with answers:
INSERT INTO measurements (binder, scale_unit, assay_value) VALUES
  ('#9104v-L64 (antibody, human IgG4 S228P, lambda, V domains shown, Full-length IgG, lambda) VH: EVQLLESGGGLVQPGGSLRLSCAASGFTFSNYYMSWVRQAPGKGLEWVSGIYYGSGNIYYADSVKGRFTISRDNSKNTLYLQMNSLRAEDTAVYYCARDTPGFDYWGQGTLVTVSS VL: QSVLTQPPSASGTPGQRVTISCTGSSSNIGNNAVNWYQQLPGTAPKLLIYYDYFSHSGVPDRFSGSKSGTSASLAISGLRSEDEADYYCGAWDYSLSAYVFGGGTKLTVLG', 's⁻¹', 0.000193),
  ('#9104v-L19 (antibody, human IgG4 S228P, lambda, V domains shown, Full-length IgG, lambda) VH: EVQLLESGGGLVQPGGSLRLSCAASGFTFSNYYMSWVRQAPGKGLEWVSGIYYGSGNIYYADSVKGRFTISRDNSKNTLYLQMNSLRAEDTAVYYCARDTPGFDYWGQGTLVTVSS VL: QSVLTQPPSASGTPGQRVTISCTGSSSNIGNNAVNWYQQLPGTAPKLLIYYDLFRPSGVPDRFSGSKSGTSASLAISGLRSEDEADYYCGAWDYSLSAYVFGGGTKLTVLG', 's⁻¹', 0.000238),
  ('#9104v-L25 (antibody, human IgG4 S228P, lambda, V domains shown, Full-length IgG, lambda) VH: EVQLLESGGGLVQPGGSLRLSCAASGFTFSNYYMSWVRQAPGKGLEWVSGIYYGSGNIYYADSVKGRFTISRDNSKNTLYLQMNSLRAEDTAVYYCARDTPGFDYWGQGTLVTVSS VL: QSVLTQPPSASGTPGQRVTISCTGSSSNIGNNAVNWYQQLPGTAPKLLIYYDSFPASGVPDRFSGSKSGTSASLAISGLRSEDEADYYCGAWDYSLSAYVFGGGTKLTVLG', 's⁻¹', 0.000259);

Given the entry #9104v-L65 (antibody, human IgG4 S228P, lambda, V domains shown, Full-length IgG, lambda) VH: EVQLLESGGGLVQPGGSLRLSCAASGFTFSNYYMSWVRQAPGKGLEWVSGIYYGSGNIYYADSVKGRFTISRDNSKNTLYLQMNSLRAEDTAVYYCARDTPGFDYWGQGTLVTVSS VL: QSVLTQPPSASGTPGQRVTISCTGSSSNIGNNAVNWYQQLPGTAPKLLIYYDYYQSSGVPDRFSGSKSGTSASLAISGLRSEDEADYYCGAWDYSLSAYVFGGGTKLTVLG , report its measured koff.
0.000192

Just for reference, patent US20260201064A1 is where these values come from.
